# normalized growth per entry
protocol-description: chemical genetic growth profiling, strain panel (AID 1159580);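 note: tested at 20 µM; growth read once vehicle control cultures reached saturation at 30 °C; 1 = growth at the plate median or of vehicle wells; lower values mean less growth of the strain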
assay-conditions: S. cerevisiae deletion strains, growth OD, locus YDL101C, strain DUN1, stronger effect = lower value
In all, about 5,500 compounds went through this assay and about 2,000 (36%) were called active. Not shown: some 18% with an inconclusive outcome. The list shows a part of the results.
test-readout: normalized growth

COc1c(CC=C(C)C)c2c(c3oc(=O)c(-c4ccc(O)cc4)c(O)c13)C=CC(C)(C)O2 = 0.964
O=C(O)c1ccccc1OP(=O)(O)O = 1.02
C[CH2][Hg][S]c1ccccc1C(=O)O = 0.0547
COc1c2c(c(CC=C(C)C)c3oc(=O)c(-c4ccc(O)cc4)c(O)c13)OC(C)(C)C=C2 = 0.862
COc1c(CC=C(C)C)c2c(c3oc(=O)c(-c4ccc(OC(C)=O)cc4)c(OC(C)=O)c13)C=CC(C)(C)O2 = 1.03

----------
protocol-description: chemical genetic growth profiling, strain panel (AID 1159580)
assay-conditions: S. cerevisiae deletion strains, growth OD, locus YOR136W, strain idh2
In all, about 5,500 compounds went through this assay and about 2,000 (36%) were called active. About 18% were inconclusive and are not listed. Rule as the data show it: active = normalized growth mostly below about 0.91 (no sharp cut-off); inconclusive = no clear call, values can overlap the other calls; inactive = mostly above about 0.92. Some of the results follow.
Outcomes: active, inactive

CO[C@H]1C[C@H](O[C@H]2[C@H](C)[C@@H](OC3O[C@H](C)C[C@H](N(C)C)[C@H]3O)[C@@H](C)C[C@]3(CO3)C(=O)[C@H](C)[C@@H](O)[C@@H](C)[C@@H](C)OC(=O)[C@@H]2C)O[C@@H](C)[C@@H]1O (stereo partly drawn) = inactive
COc1ccc(-c2coc3c(OC)c(O)ccc3c2=O)cc1 = inactive
COc1ccc(-c2coc3c(OC)c(OC)cc(OC)c3c2=O)cc1 = inactive
NC(=O)N1c2ccccc2CC(=O)c2ccccc21 = inactive
O=c1ccc2cc(O)c(O)cc2o1 = inactive
COc1ccc(C[C@H]2NC[C@H](O)[C@H]2OC(C)=O)cc1 = active
COc1c(CC=C(C)C)c2c(c3oc(=O)c(-c4ccc(OC(C)=O)cc4)c(OC(C)=O)c13)C=CC(C)(C)O2 = inactive
CC1(C)C2CC[C@]3(C)C(C(=O)C=C4[C@@H]5C[C@@](C)(C(=O)O)CC[C@]5(C)CC[C@]43C)[C@@]2(C)CC[C@@H]1OC(=O)CCC(=O)O (stereo partly drawn) = inactive
CN1C2CC3C[C@H]1C(O3)C2O (stereo partly drawn) = inactive
CN1Cc2c(ccc3c2OCO3)C2C(O)Cc3cc4c(cc3C21)OCO4 (stereo not drawn) = inactive
CCN(CC)C(=S)SSC(=S)N(CC)CC = active
CC(=O)O[C@H]1C(=O)[C@@]2(C)C([C@H](OC(=O)c3ccccc3)[C@]3(O)C[C@H](OC(=O)[C@H](O)[C@@H](NC(=O)c4ccccc4)c4ccccc4)C(C)=C1C3(C)C)[C@]1(OC(C)=O)CO[C@@H]1C[C@@H]2O (stereo partly drawn) = active
c1ccc(CN(CC2=NCCN2)c2ccccc2)cc1 = inactive
O[C@H]1C=C2CCN3Cc4cc5c(cc4C(C23)[C@@H]1O)OCO5 (stereo partly drawn) = active
COc1ccc([C@@H]2CC(=O)c3c(O)cc(O)cc3O2)cc1O = inactive
COc1c(CC=C(C)C)c2c(c3oc(=O)c(-c4ccc(O)cc4)c(O)c13)C=CC(C)(C)O2 = inactive
C=C1CC[C@H](O)C/C1=C/C=C1\CCC[C@]2(C)C([C@H](C)/C=C/[C@H](C)C(C)C)CC[C@@H]12 (stereo partly drawn) = inactive
OCc1ccccc1O[C@@H]1O[C@H](CO)[C@@H](O)[C@H](O)[C@H]1O = inactive

----------
# normalized growth per entry
protocol-description: chemical genetic growth profiling, strain panel (AID 1159580);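 note: tested at 20 µM; growth read once vehicle control cultures reached saturation at 30 °C; 1 = growth at the plate median or of vehicle wells; lower values mean less growth of the strain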
assay-conditions: S. cerevisiae deletion strains, growth OD, locus YGL240W, strain doc1, stronger effect = lower value
About 2,000 (36%) of roughly 5,500 compounds were called active. Roughly 18% stayed inconclusive and do not appear here. The list shows a part of the results.
test-readout: normalized growth

OCCN(CCO)c1nc(N2CCCCC2)c2nc(N(CCO)CCO)nc(N3CCCCC3)c2n1 = 0.979
Cc1cc(=O)c2c(O)cc(O)c(C)c2o1 = 0.931
CC(=O)O[C@@](C)(CCC=C(C)C)C1CC=C(C)CC1 (some centres undefined) = 0.992
CC(=O)O[C@]1(C(C)=O)CCC2C3C=C(C)C4=CC(=O)CCC4(C)C3CCC21C (some centres undefined) = 0.925
CC[C@H]1OC(=O)C[C@@H](O)[C@H](C)[C@@H](O[C@@H]2O[C@H](C)[C@@H](O[C@H]3C[C@@](C)(O)[C@@H](O)[C@H](C)O3)[C@H](N(C)C)[C@H]2O)[C@@H](CC=O)C[C@@H](C)C(=O)/C=C/C(C)=C/[C@@H]1CO[C@@H]1O[C@H](C)[C@@H](O)[C@@H](OC)[C@H]1OC = 0.992
CCCCCCCCCCCCC[N+](C)(C)Cc1ccccc1 = 0.0764
COc1cc(OC)c2c(c1)O[C@H](c1ccc(OC)c(OC)c1)[C@@H](O)C2 = 1
COc1ccc2c(c1)OC[C@@H](Cc1ccc(OC)c(OC)c1)[C@H]2O = 1.01
COC(=O)C1=COC(OC2OC(CO)C(O)C(O)C2O)C2C(C)CC(=O)C12O (centres undefined) = 1.01
CC(=O)O[C@]1(C(C)=O)CCC2C3C[C@H](C)C4=CC(=O)CC[C@]4(C)C3CC[C@@]21C (some centres undefined) = 0.98
NC/C=C/C(=O)O = 1.02
COc1cc(O)c2c(=O)cc(C)oc2c1CC=C(C)C = 0.987
CC(C)(N=NC(C)(C)C(=N)N)C(=N)N = 1.04
COc1c(O)cc2oc3cc(O)c(CC=C(C)C)c(O)c3c(=O)c2c1CC=C(C)C = 0.887
COc1ccc2c(c1)OC[C@@H](Cc1ccc(OC)c(OC)c1)[C@@H]2O = 1.02
Cc1cc(C(C)(C)CC(C)(C)C)ccc1OCCOCC[N+](C)(C)Cc1ccccc1 = 0.0709
O=C(Cc1ccccc1)NO = 0.995
CC1(C)C2CC[C@]3(C)C(C(=O)C=C4[C@@H]5C[C@@](C)(C(=O)O)CC[C@]5(C)CC[C@]43C)[C@@]2(C)CC[C@@H]1OC(=O)CCC(=O)O (some centres undefined) = 0.992
CC(C)(C)CC(C)(C)c1ccc(OCCOCC[N+](C)(C)Cc2ccccc2)cc1 = 0.0832

----------
protocol-description: chemical genetic growth profiling, strain panel (AID 1159580);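 note: tested at 20 µM; growth read once vehicle control cultures reached saturation at 30 °C; 1 = growth at the plate median or of vehicle wells; lower values mean less growth of the strain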
assay-conditions: S. cerevisiae deletion strains, growth OD, locus YMR263W, strain SAP30, stronger effect = lower value
In all, about 5,500 compounds went through this assay and about 2,000 (36%) were called active. Inconclusive results (about 18%) are left out. Some of the results follow.
Friendly reminder: normalized growth below 1 is yes, at or above is no.

O=C(Nc1ccccc1C(=O)Nc1ccc(Br)cc1)c1ccccc1 = no
COc1ccc(-c2coc3c(OC)c(OC)cc(O)c3c2=O)cc1 = yes
CC(=O)O[C@@](C)(CCC=C(C)C)C1CC=C(C)CC1 (stereo partly drawn) = no
O=C(O)COCC(=O)N1CCc2c([nH]c3ccccc23)C1C(F)(F)F (stereo not drawn) = yes
O=C(/C=C/C=C/c1ccc2c(c1)OCO2)N1CCCCC1 = yes
S=C=NCc1ccccc1 = yes
COc1cc2c(cc1OC)C(=O)C(CC1CCN(Cc3ccccc3)CC1)C2 (stereo not drawn) = yes
CC1(C)/C(=N/OC(=O)c2cccc(C(F)(F)F)c2)[C@]2(C)CCC1C2 = yes
COc1ccc(C(=O)c2ccccc2)c(O)c1 = yes
CN1C/C(=C\c2ccccc2Cl)C(=O)/C(=C/c2ccccc2Cl)C1 = yes
COc1ccc(CC2c3cc(OC)c(OC)cc3CCN2C)cc1OC (stereo not drawn) = yes
Oc1c(Cl)c(Cl)c(Cl)c(Cl)c1Cl = yes

----------
protocol-description: chemical genetic growth profiling, strain panel (AID 1159580);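 note: tested at 20 µM; growth read once vehicle control cultures reached saturation at 30 °C; 1 = growth at the plate median or of vehicle wells; lower values mean less growth of the strain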
assay-conditions: S. cerevisiae deletion strains, growth OD, locus YPR025C, strain CCL1, stronger effect = lower value
The campaign covered roughly 5,500 compounds. About 2,000 (36%) were called active. Roughly 18% stayed inconclusive and do not appear here. The list shows a part of the results.
# normalized growth per entry
test-readout: normalized growth

O=[N+]([O-])c1cc(C(F)(F)F)ccc1-n1ccc(-c2cccs2)n1 = 0.95 (inactive)
O=C(C=C(O)c1ccc(Br)cc1)C(=O)Nc1ccccc1 = 0.871 (active)
NCCCN=c1ccc2c3c1c(O)c1c(O)ccc(=O)c1c3[nH]n2CCNCCO = 0.979 (inactive)
Cn1cncc1S(=O)(=O)/C(C#N)=C/c1ccccc1Sc1ccc(Cl)cc1 = 0.977 (inactive)
Cc1c(C(=O)N2CCCCC2)cc(-c2ccccc2)n1-c1ccccc1 = 0.981 (inactive)
N#C/C(=N/Nc1ccccc1Cl)S(=O)(=O)c1ccc(Cl)cc1 = 0.978 (inactive)
Cc1ccccc1C(=O)N1CCc2c([nH]c3ccccc23)C1C(F)(F)F (stereo unspecified) = 0.989 (inactive)
Cc1oc2c(F)c(F)c(F)c(F)c2c1C(=O)ONC(N)c1ccc(OS(=O)(=O)N(C)C)cc1 (stereo unspecified) = 0.968 (inactive)
O=C(CCN1CCCCC1)c1ccc(-c2ccccc2)cc1 = 0.982 (inactive)
N#Cc1c(Cl)c(Cl)c(Cl)c(Cl)c1C#N = 0.728 (active)
O=C(Nc1c(Br)c(C2CC2)nn1-c1ccccc1)C(Cl)(Cl)Cl = 0.923 (inactive)
